test system: BT-549 breast; test: NCI tumour cell line growth inhibition, 48 h
readout-kind: TGI (µM)

# molecule, result-operator, test-result
measured = [
    ("CCOc1ccc(N=NC2C(=O)N(C(=O)CC(=O)Nc3ccc(C)cc3)N=C2C)cc1 (centres undefined)", ">", 100),
    ("COc1ccc(/C=C2\\N=C(SC)N(C)C2=O)cc1", ">", 100),
    ("Cc1ccc(NCCN2CCCCC2)c2c(=O)c3ccccc3sc12", "=", 9.59),
    ("CCC(=O)O[C@H]1CC[C@H]2[C@@H]3CCC4=CC(=O)C=C[C@]4(O)[C@H]3CC[C@]12C", "=", 57.5),
]

###

tested on: RXF 393 renal; experiment: NCI tumour cell line growth inhibition, 48 h
TGI by entry:
readout-kind: TGI (µM)

# molecule, readout-kind, unit-string, result-operator, test-result
measured = [
    ("CCOC(=O)c1ccc2[nH]c(O)c(C(=Nc3ccc(N(C)C(=O)CN4CCN(C)CC4)cc3)c3ccccc3)c2c1", "TGI", "µM", "=", 0.698),
    ("O=C(c1ccc(Cl)c(Cl)c1)N(Cc1cccnc1)C(=S)N(Cc1cccnc1)C(=O)c1ccc(Cl)c(Cl)c1", "TGI", "µM", "=", 79.6),
    ("COc1ccc2nc3cccc([N+](=O)[O-])c3c(NCCN(C)C)c2c1", "TGI", "µM", "=", 0.23),
    ("CCOc1ccc(NC(=O)C(=O)C2C(=O)Nc3ccccc3S2=O)cc1 (centres undefined)", "TGI", "µM", ">", 100),
    ("Cc1ccccc1C1=C/C(=C(\\SS/C(C(=O)c2ccc(OCC(=O)O)c(Cl)c2Cl)=C2\\C=C(c3ccccc3C)SS2)C(=O)c2ccc(OCC(=O)O)c(Cl)c2Cl)SS1", "TGI", "µM", "=", 55.2),
    ("CCOc1ccc2nc(S/C(=C/C=C(C#N)C#N)c3ccc(Cl)cc3)sc2c1", "TGI", "µM", "=", 23.5),
    ("Cc1cc2c(c(C)c1O)C(C)(C)CN2C(=O)C(C)(C)C", "TGI", "µM", "=", 86.9),
    ("CCCN1C(=O)/C(=C/c2cccc(O)c2)SC1=Nc1ccc(OC)cc1", "TGI", "µM", "=", 19.3),
    ("CC(=O)N(C)c1ccc2ncccc2c1[N+](=O)[O-]", "TGI", "µM", ">", 100),
]

###

system: HT29 colon; test: NCI tumour cell line growth inhibition, 48 h
Where a SMILES comes first, the peptide text is derived from it. The star is where a group is joined. Boc = CC(C)(C)OC(=O)*

# compound, TGI
rows = [
    ("CC(NC(=O)C(Cc1ccc(OC(=O)c2ccccc2)cc1)NC(=O)OC(C)(C)C)C(=O)NCC(=O)NC(Cc1ccccc1)NC(=O)OCc1ccccc1 (stereo not drawn)", "> 100 µM"),
    ("CC(NC(=O)OC(C)(C)C)C(=O)NC(Cc1ccccc1)C(=O)NCC(=O)O (stereo not drawn) (Boc-Ala-Phe-Gly-OH; configuration not given here)", "> 100 µM"),
    ("CC(C)OP(=O)(OC(C)C)C([CH2][Sn]([CH3])([CH3])[Cl])P(=O)(OC(C)C)OC(C)C", "79.2 µM"),
    ("COc1ccc(/C=C2\\N=C(SC)N(C)C2=O)cc1", "> 100 µM"),
    ("COc1ccc2c(c1)CN1C(=N2)CSC1c1c(Cl)cccc1[N+](=O)[O-] (stereo not drawn)", "38.1 µM"),
    ("O=C(O[C@H]1CN[C@H](C#Cc2cc3ncnc(Nc4ccc5c(cnn5Cc5ccccc5)c4)c3s2)C1)N1CCOCC1", "11.5 µM"),
    ("Cc1ccc2nc(-n3c(/C=C/c4ccccc4O)nc4ccccc4c3=O)sc2c1", "> 100 µM"),
    ("O=C(CCN1CCCCC1)Nc1ccc2sc3ccccc3c(=O)c2n1", "> 100 µM"),
]

###

test system: SK-MEL-5 melanoma; test: NCI tumour cell line growth inhibition, 48 h
TGI by entry:

# compound, target, TGI
records = [
    ("O=C(/C=C(\\N=P(c1ccccc1)(c1ccccc1)c1ccccc1)C(F)(F)C(F)(F)C(F)(F)C(F)(F)C(F)(F)C(F)(F)C(F)(F)F)c1ccccc1", "SK-MEL-5 melanoma", "> 100 µM"),
    ("CC(NC(=O)C(Cc1ccc(OC(=O)c2ccccc2)cc1)NC(=O)OC(C)(C)C)C(=O)NCC(=O)NC(Cc1ccccc1)NC(=O)OCc1ccccc1 (stereo not given)", "SK-MEL-5 melanoma", "> 100 µM"),
    ("Cc1ccc(-c2cc3c(NC(=O)C4CC4)ncnc3o2)cc1", "SK-MEL-5 melanoma", "> 25 µM"),
    ("CCCCN(C(=O)c1ccccc1)C1CCC(=O)c2[nH]c3ccccc3c21 (stereo not given)", "SK-MEL-5 melanoma", "49.9 µM"),
    ("N#Cc1ccc(Oc2nc3ccccc3nc2C(=O)O)cc1", "SK-MEL-5 melanoma", "> 100 µM"),
    ("O=C(N=Nc1ccc(Br)cc1)NNc1ccc(Br)cc1", "SK-MEL-5 melanoma", "26.9 µM"),
    ("O=C(Nc1nc2ncn(CCNCCn3cnc4nc(NC(=O)c5ccccc5)[nH]c(=O)c43)c2c(=O)[nH]1)c1ccccc1", "SK-MEL-5 melanoma", "> 100 µM"),
    ("C=CCCCC(C#N)(c1ccccc1)N1CCCC1 (stereo not given)", "SK-MEL-5 melanoma", "> 100 µM"),
    ("Cc1ccc(Nc2nc(C)c(C(=O)CC(=O)C(=O)Nc3ccc(Cl)cc3)s2)cc1", "SK-MEL-5 melanoma", "> 100 µM"),
    ("CN1C(=O)N(C)C2C1NN=c1s/c(=C\\c3ccccc3F)c(=O)n12 (stereo not given)", "SK-MEL-5 melanoma", "4.11 µM"),
]

###

TGI by entry:
tested on: NCI-H460 lung; assay: NCI tumour cell line growth inhibition, 48 h
readout-kind: TGI

# compound, test-result
records = [
    ("CCCOP1(=O)C=CC(Cl)=C(C)C1 (stereo not given)", "> 100 µM"),
    ("CCOC(=O)C1C(=O)CC(O)(c2ccccc2)C(C(=O)OCC)C1c1ccc(N(C)C)cc1 (stereo not given)", "> 83.8 µM"),
    ("COC(=O)C1CCC(NC(=O)c2csc([C@@H](C[C@H](C(C)C)N(C)C(=O)[C@@H](NC(=O)[C@H]3CCCCN3C)C(C)C)OC(C)=O)n2)CC1 (stereo not given in full)", "> 33.3 µM"),
    ("CC(C)(C)c1cc(Cc2ccc([N+](C)(C)C)cc2)c(O)c(C(C)(C)C)c1", "37.9 µM"),
    ("CC(C)=CCC/C(C)=C\\CC/C(C)=C/CO", "> 10 µM"),
]

###

test system: TK-10 renal; assay: NCI tumour cell line growth inhibition, 48 h
Where a SMILES comes first, the peptide text is derived from it. [ ]: non-standard residue; d: D form. The star is where a group is joined. Phe(4-NO2) = N[CH](Cc1ccc([N+](=O)[O-])cc1)C(=O)O; Boc = CC(C)(C)OC(=O)*; OtBu = CC(C)(C)O*
TGI by entry:
readout-kind: TGI

# compound, test-result
data = [
    ("N#Cc1c2nc3ccccc3nc2n2ccccc12", "> 100 µM"),
    ("CC[N+](CC)(CC)Cc1cc2ccccc2n1C(=O)OC", "> 100 µM"),
    ("CC1CN=C(N(C(=O)Nc2ccccc2)c2ccccc2)S1 (stereo not given)", "94.2 µM"),
    ("CC(=O)NC(CCC(=O)OC(C)(C)C)C(=O)NC(CCC(=O)OC(C)(C)C)C(=O)NC(Cc1ccc([N+](=O)[O-])cc1)C(=O)NC(CCCCNC(=O)OC(C)(C)C)C(=O)NC(CCCCNC(=O)OC(C)(C)C)C(=O)NCC(=O)O (stereo not given) (Ac-E(OtBu)E(OtBu)[Phe(4-NO2)]K(Boc)K(Boc)G-OH; configuration not given here)", "> 100 µM"),
    ("CCCCN(C(=O)c1ccccc1)C1CCC(=O)c2[nH]c3ccccc3c21 (stereo not given)", "> 100 µM"),
    ("O=S(=O)(O)c1cc(N=Nc2c(O)ccc3ccccc23)c2c(S(=O)(=O)O)cccc2c1", "> 100 µM"),
    ("CC#CC(OCC)(OCC)OCC", "> 100 µM"),
    ("CCOc1ccc(N=NC2C(=O)N(C(=O)CC(=O)Nc3ccc(C)cc3)N=C2C)cc1 (stereo not given)", "93.2 µM"),
    ("Nc1cc(N)c2nc(-c3ccccc3)c(Sc3ccc(Cl)c(Cl)c3)nc2c1", "31.8 µM"),
    ("CC(=O)N(C)c1ccc2ncccc2c1[N+](=O)[O-]", "> 100 µM"),
    ("CC1(C)COC2(OC1)C1=NS(=O)(=O)CC13CCC2C3(C)C (stereo not given)", "> 100 µM"),
    ("C[C@H](O)CNc1cc(-c2[nH]c3cccnc3c2-c2ccc(F)cc2)ccn1", "> 25 µM"),
    ("CCOC(=O)c1ccc2[nH]c(O)c(C(=Nc3ccc(N(C)C(=O)CN4CCN(C)CC4)cc3)c3ccccc3)c2c1", "3.33 µM"),
    ("N#Cc1cccc(N2C(=O)c3ccc(C(=O)c4ccc5c(c4)C(=O)N(c4cccc(C#N)c4)C5=O)cc3C2=O)c1", "> 100 µM"),
    ("Cc1cccc(-c2nnc3s/c(=C\\c4ccc5c(c4)OCO5)c(=O)n23)c1", "> 100 µM"),
]
